# Test system: Drosophila S2 cl14 SmoIP sensor cells
# procedure_text: normalized SmoIP GFP fluorescence (untreated unstimulated = 0%, untreated Hh-stimulated = 100%); higher = more Smo activation sensor fluorescence
# test_parameters: stimulation: mock conditioned medium (-Hh); compound concentration: 2 uM; 24 h
Give normalized SmoIP GFP fluorescence for every item shown.
Numbers only, in %.

Solved cases below.
{"smiles_str": "NC1(Cc2ccc(Cl)cc2)CCN(c2ncnc3[nH]ccc23)CC1", "readout_units": "%", "normalized SmoIP GFP fluorescence": 8.36}
{"smiles_str": "CC1(C)Cc2c(-c3ccccc3)c(-c3ccc(Cl)cc3)c(CC(=O)O)n2C1", "readout_units": "%", "normalized SmoIP GFP fluorescence": -11.2}

// input: 3 compounds below; output: normalized SmoIP GFP fluorescence for each
1. Cc1c(C(=O)Nc2ccc(N3C[C@@H](C)O[C@@H](C)C3)nc2)cccc1-c1ccc(OC(F)(F)F)cc1
2. CN(C)CCCCC(=O)Nc1ccc(NC(=S)NC(=O)c2ccc(C(C)(C)C)cc2)cc1
3. CCOc1ccc(NC(C)=O)cc1

A:
[-12.2, 3.49, 9.08]

----------
# System: Drosophila S2 cl14 SmoIP sensor cells
# procedure_text: normalized SmoIP GFP fluorescence (untreated unstimulated = 0%, untreated Hh-stimulated = 100%); higher = more Smo activation sensor fluorescence
# test_parameters: stimulation: mock conditioned medium (-Hh); compound concentration: 2 uM; 24 h
Counter-ions that a name gives are not always drawn.
Give normalized SmoIP GFP fluorescence for every item shown.
Numbers only, in %.

Solved cases below.
{"molecule": "CC(=O)O[C@]1(C(C)=O)CC[C@H]2[C@@H]3C=C(C)C4=CC(=O)CC[C@]4(C)[C@H]3CC[C@@]21C [Megestrol-Acetate]", "normalized SmoIP GFP fluorescence / %": -0.804}
{"molecule": "Nc1cccc2c1CN(C1CCC(=O)NC1=O)C2=O (stereo not drawn) [Lenalidomide]", "normalized SmoIP GFP fluorescence / %": 28.7}
{"molecule": "COc1ccc(CNC(=O)Nc2ncc([N+](=O)[O-])s2)cc1", "normalized SmoIP GFP fluorescence / %": -11}
{"molecule": "O=C(Nc1cccc(Cl)c1)Nc1ncc(CCNc2ncnc3ccsc23)s1", "normalized SmoIP GFP fluorescence / %": 11}
{"molecule": "CN(C)C(=O)c1cc2cnc(Nc3ccc(N4CCNCC4)cn3)nc2n1C1CCCC1", "normalized SmoIP GFP fluorescence / %": -0.265}

// input: 3 molecules below; output: normalized SmoIP GFP fluorescence for each
1. O=C(O)COCCN1CCN(C(c2ccccc2)c2ccc(Cl)cc2)CC1 (stereo not drawn) [Cetirizine-di-hcl]
2. C=CCc1ccc(O)c(-c2ccc(O)c(CC=C)c2)c1
3. Cc1cccc(-c2[nH]c(C(C)(C)C)nc2-c2ccc3c(c2)OCO3)n1

A:
-7.27
-9.22
-6.97

// input: 7 molecules below; output: normalized SmoIP GFP fluorescence for each
1. CCc1c(C(=O)NCCc2ccc(N3CCCCC3)cc2)[nH]c2ccc(Cl)cc12
2. Cc1ccc(S(=O)(=O)OCC(=O)Nc2ccc(C(=O)O)c(O)c2)cc1
3. CNC(=O)c1ccc(N2C(=S)N(c3cnc(C#N)c(C(F)(F)F)c3)C(=O)C23CCC3)cc1F
4. O=c1cc(-c2ccccc2)oc2cc(O)c(O)c(O)c12
5. NC(=O)c1ccc(N(C(N)=O)c2c(F)cccc2F)nc1-c1ccc(F)cc1F
6. CN(C)[C@@H](CCOc1cccc2ccccc12)c1ccccc1 [Dapoxetine-hydrochloride(Priligy)]
7. Cc1cc(-c2ccc(CC(=O)Nc3ccc(-c4cccnc4)cc3)cc2)ccn1

A:
-0.804
-9.58
-0.0369
1.24
-3.5
-13.2
10.6

----------
# Tested on: Drosophila S2 cl14 SmoIP sensor cells;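 further: flow cytometry read-out as median GFP intensity of gated cells, compounds added 30 min before Hh-conditioned or mock medium, mock-treated cells serving as unstimulated baseline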
# procedure_text: normalized SmoIP GFP fluorescence (untreated unstimulated = 0%, untreated Hh-stimulated = 100%); higher = more Smo activation sensor fluorescence
# test_parameters: stimulation: mock conditioned medium (-Hh); compound concentration: 2 uM; 24 h
Counter-ions that a name gives are not always drawn.
measurement_name: normalized SmoIP GFP fluorescence

Solved cases below.
{"compound": "CCCCCCCCCCCC1=C(O)C(=O)C=C(O)C1=O", "target_of_assay": "Drosophila S2 cl14 SmoIP sensor cells", "normalized SmoIP GFP fluorescence": "-2.08%"}
{"compound": "O=C(NCc1ccc(Oc2ccccc2)cc1)c1nc(-c2cc(Br)c(O)c(Br)c2)no1", "target_of_assay": "Drosophila S2 cl14 SmoIP sensor cells", "normalized SmoIP GFP fluorescence": "20%"}
{"compound": "CN1[C@@H]2CC[C@H]1C[C@@H](OC(=O)c1c[nH]c3ccccc13)C2 [Tropisetron-hydrochloride]", "target_of_assay": "Drosophila S2 cl14 SmoIP sensor cells", "normalized SmoIP GFP fluorescence": "-14.9%"}
{"compound": "O=C(CCCS)NC1CCN(C(=O)COc2ccc(Cl)cc2Cl)CC1 [k-ras-g12c-inhibitor-6]", "target_of_assay": "Drosophila S2 cl14 SmoIP sensor cells", "normalized SmoIP GFP fluorescence": "-2.82%"}
{"compound": "N#Cc1ccc(C(c2ccc(C#N)cc2)n2cncn2)cc1", "target_of_assay": "Drosophila S2 cl14 SmoIP sensor cells", "normalized SmoIP GFP fluorescence": "-1.88%"}

// input: 2 compounds below; output: normalized SmoIP GFP fluorescence for each
1. CC(C)(C)c1cc(NC(=O)Nc2ccc(-c3cn4c(n3)sc3cc(OCCN5CCOCC5)ccc34)cc2)no1
2. CN1CCC(CNc2ccc3ncc(-c4cccc(OC(F)(F)F)c4)n3n2)CC1

A:
8.79%
5.38%

// input: 2 compounds below; output: normalized SmoIP GFP fluorescence for each
1. O=C1CCc2cc(OCCCCc3nnnn3C3CCCCC3)ccc2N1
2. Cn1c(=O)c2[nH]cnc2n(C)c1=O

A:
1. 2.11%
2. -6.51%

// input: 3 compounds below; output: normalized SmoIP GFP fluorescence for each
1. Cn1cncc1[C@@](N)(c1ccc(Cl)cc1)c1ccc2c(c1)c(-c1cccc(Cl)c1)cc(=O)n2C
2. COc1cc(OC)c(NC(=O)Nc2cc(C)on2)cc1Cl
3. NC(=O)[C@@H](CCC(F)(F)F)N(Cc1ccc(-c2ncon2)cc1F)S(=O)(=O)c1ccc(Cl)cc1

A:
1. 43.9%
2. -5.98%
3. 0.489%

// input: 7 compounds below; output: normalized SmoIP GFP fluorescence for each
1. O=C(O)CCCCC(CCSCc1ccccc1)SCc1ccccc1 (stereo unspecified)
2. CC(=O)OCC[N+](C)(C)C [Acetylcholine-chloride]
3. CCN1CCN(Cc2ccc(-c3cc4c(N[C@H](C)c5ccccc5)ncnc4[nH]3)cc2)CC1
4. CNCCc1ccccn1 [betahistine-dihydrochloride]
5. C=CC(=O)Nc1cc2c(Nc3ccc(F)c(Cl)c3)ncnc2cc1OCCCN1CCOCC1
6. CN(C)CC(c1ccc(O)cc1)C1(O)CCCCC1 (stereo unspecified)
7. CCN(CC)CCCC(C)Nc1nc(C)cc(Nc2ccc3nc(C)cc(N)c3c2)n1 (stereo unspecified)

A:
["-1.63%", "-16.8%", "6.52%", "-3.05%", "13.8%", "-0.889%", "-4.53%"]

// input: 7 compounds below; output: normalized SmoIP GFP fluorescence for each
1. CN1CCC(=C2c3ccccc3CC(=O)c3sccc32)CC1 [ketotifen-fumarate-zaditor]
2. O=C(O)CCCc1ccccc1 [sodium-phenylbutyrate]
3. O=C(CCCCCCNC(=O)c1cnc(N(c2ccccc2)c2ccccc2)nc1)NO
4. CCOC(=O)CCNc1cc(N2CCc3ccccc3CC2)nc(-c2ccccn2)n1
5. COc1cc2c(cc1OC)[C@@H]1Cc3ccc(OC)c(OC)c3CN1CC2
6. CC[C@@H](C)Nc1cc(C(=O)N[C@H]2C[C@H]3CC[C@@H](C2)N3c2ccc(C(=O)C3CC3)cn2)c(C)cc1C(N)=O
7. CCCCCCCCCCCCc1ccc(S(=O)(=O)Nc2nncs2)cc1

A:
1. -13.9%
2. -2.93%
3. 6.2%
4. -2.48%
5. 12.5%
6. 18%
7. 1.03%

// input: 8 compounds below; output: normalized SmoIP GFP fluorescence for each
1. CCC(=O)N1CCN(c2ccc(-n3c(=O)ccc4cnc5ccc(-c6cnc7ccccc7c6)cc5c43)cc2C(F)(F)F)CC1
2. CC(C)c1cc(C(C)C)c(CC(=O)NS(=O)(=O)Oc2c(C(C)C)cccc2C(C)C)c(C(C)C)c1
3. COC(=O)[C@H](c1ccccc1Cl)N1CCc2sccc2C1 [Clopidogrel-bisulfate]
4. CC(=O)Nc1ccc(NC(=S)NC(=O)c2ccc(C(C)(C)C)cc2)cc1
5. CCC(CC)CC1(C(=O)Nc2ccccc2SC(=O)C(C)C)CCCCC1
6. CN(C)CC/C=C1/c2ccccc2Sc2ccc(Cl)cc21
7. COc1ccc(C2CNC(=O)C2)cc1OC1CCCC1 (stereo unspecified)
8. O=C(C[S+]([O-])Cc1ccco1)NC/C=C\COc1cc(CN2CCCCC2)ccn1 (stereo unspecified)

A:
1. -12.5%
2. -15.8%
3. 2.97%
4. -4.47%
5. -10.6%
6. -0.378%
7. -1.88%
8. -9.85%

// input: 2 compounds below; output: normalized SmoIP GFP fluorescence for each
1. COC(=O)N[C@H](C(=O)N[C@@H](Cc1ccccc1)[C@@H](O)CN(Cc1ccc(-c2ccccn2)cc1)NC(=O)[C@@H](NC(=O)OC)C(C)(C)C)C(C)(C)C
2. CN(C)CCc1c[nH]c2ccc(Cn3cncn3)cc12 [Rizatriptan-Benzoate(Maxalt)]

A:
["-0.0496%", "-0.265%"]

Attribution: the supplement of paper PMC5662767
